target: Retinaldehyde dehydrogenase 3 (Homo sapiens) (UniProt P47895); assay: qHTS for Inhibitors of the Aldehyde Dehydrogenase Family (ALDH1A3) Primary screen (AID 2061315); conditions: ALDH inhibition qHTS; series mostly up to 56 µM
Records with an inconclusive call do not appear. Calls of active or inactive are those of the source. Calls follow the shape of the dose curve; as a rule, active = well fitted inhibition curve with a large enough effect; inconclusive = small, poorly fitted or top-dose-only effect; inactive = no such curve, though single readings can be large or run the other way.
attributeMeasured: activity change, negative = inhibition

{"columns": ["smilesInput", "activity change, negative = inhibition"],
 "data": [
  ["Cc1nc(-c2ccccc2C(C)C)nc(NCc2ccc(-c3cccnc3)cc2)c1C", "inactive"],
  ["CNCC(=O)Nc1ccc(Cl)cc1C(=O)c1ccc[nH]1", "inactive"],
  ["N#Cc1c(Cl)cccc1Oc1ccc([S+](=O)([O-])N2CCN([S+](=O)([O-])c3c(F)cccc3F)CC2)cc1", "inactive"],
  ["CCOc1ccc(C(=O)Nc2ccc(-c3nc4ccccc4[nH]3)cc2)cc1[N+](=O)[O-]", "inactive"]
]}

Next molecule, please.
Requested read-out: activity change, negative = inhibition. Entry: `CCOc1ccc(CCNC(=O)c2ccc3ccccc3n2)cc1OCC` inactive

###

Assay: BET inhibitor-based combinations targeting novel dependencies in MECOM-rearranged (r) AML: AML-194 cell line (AID 2202237; also: nearly all actives have a fitted effect of over 40% in size)
Details: AML-194 (MECOM-r AML) viability, CellTiter-Glo, 48 h; series mostly up to 46 µM
Procedure: Ecotropic viral insertion site 1 (EVI1) is located on chromosome 3q26.2 as part of the MECOM (MDS and EVI1 complex) locus. […] A collection of 2480 mechanistically annotated dugs (MIPE v5.0) was used to screen four 3q26.2 rearranged AML cell lines and three non-3q26.2 rearranged AML cell lines. […] Cell viability was determined by luminescence based, Cell Titer Glo assay (Promega). […] Luminescence readings were taken using a Viewlux (PerkinElmer) with a 2 s exposure time per plate. […]
Inconclusive results are not listed. Activity calls are given as the source filed them. The call rests on the fitted dose curve; in most records, active means well fitted inhibition curve with a large enough effect; inconclusive means small, poorly fitted or top-dose-only effect; inactive means flat fitted curve, though single readings scatter.
Allowed answers: active, inactive

Dear all, I need the recorded test outcome for `O=C1Nc2nc(-c3c(O)cccc3OCC3CC3)cc([C@@H]3CCCNC3)c2CO1` , thank you. active

Dear all, I need the recorded test outcome for `CC[C@H](CC[C@@H](C)[C@H]1CC[C@H]2[C@@H]3CC=C4C[C@@H](O)CC[C@]4(C)[C@H]3CC[C@]12C)C(C)C` , thank you. inactive

Dear all, I need the recorded test outcome for `CN1CCN(c2ccc3nc(-c4cc(C(C)(C)C)c(OCCCC(=O)NCCCN=[N+]=[N-])c(C(C)(C)C)c4)[nH]c3c2)CC1` , thank you. active

Dear all, I need the recorded test outcome for `Cc1cnc(Nc2ccc(CN3CCOCC3)cc2)nc1Nc1cccc(S(=O)(=O)NC(C)(C)C)c1` , thank you. active

Dear all, I need the recorded test outcome for `C#Cc1cccc(Nc2ncnc3cc4c(cc23)OCCOCCOCCO4)c1` , thank you. inactive

Dear all, I need the recorded test outcome for CCCCCCCCCCCCCCCCOCCCOP(=O)(O)COC(CO)Cn1ccc(N)nc1=O (stereo unspecified) , thank you. inactive

Dear all, I need the recorded test outcome for `CCCC[C@@H](C=O)NC(=O)[C@H](CC(C)C)NC(=O)OCc1ccccc1` , thank you. inactive

Dear all, I need the recorded test outcome for `C[C@H](CCC(=O)O)[C@H]1CC[C@H]2[C@@H]3[C@@H](O)C[C@@H]4C[C@H](O)CC[C@]4(C)[C@H]3CC[C@]12C` , thank you. inactive

Dear all, I need the recorded test outcome for `CCCc1cc(C(=O)N[C@H](Cc2ccc(-c3cccc(OC(F)(F)F)c3)nc2)C(=O)N[C@@H]2CCNC2)sc1C` , thank you. active

Dear all, I need the recorded test outcome for Clc1cccc(C(c2ccc3nc[nH]c3c2)n2ccnc2)c1 (stereo unspecified) , thank you. inactive

Dear all, I need the recorded test outcome for `C=CC(=O)Nc1cccc(Nc2nc(Nc3ccc(N4CCN(C(C)=O)CC4)cc3OC)ncc2C(F)(F)F)c1` , thank you. active

Dear all, I need the recorded test outcome for `C[C@@H]1[C@H](O)[C@@H](C)/C=C/C=C/C=C/C=C/C=C/C=C/C=C/[C@H](O[C@@H]2O[C@H](C)[C@@H](O)[C@H](N)[C@@H]2O)C[C@@H]2O[C@](O)(C[C@@H](O)C[C@@H](O)[C@H](O)CC[C@@H](O)C[C@@H](O)CC(=O)O[C@H]1C)C[C@H](O)[C@H]2C(=O)O` , thank you. inactive

Dear all, I need the recorded test outcome for `COc1cc([C@@H](CC(=O)O)c2ccc(C)c(CN3C[C@@H](C)Oc4ccccc4S3(=O)=O)c2)cc2nnn(C)c12` , thank you. inactive

Dear all, I need the recorded test outcome for CCCCN(CCCC)CCC(O)c1cc2c(Cl)cc(Cl)cc2c2cc(C(F)(F)F)ccc12 (stereo unspecified) , thank you. active

Dear all, I need the recorded test outcome for `CC[C@H](C)[C@@H]([C@@H](CC(=O)N1CCC[C@H]1[C@H](OC)[C@@H](C)C(=O)N[C@@H](Cc1ccccc1)c1nccs1)OC)N(C)C(=O)[C@@H](NC(=O)[C@H](C(C)C)N(C)C)C(C)C` , thank you. inactive

Dear all, I need the recorded test outcome for `C[C@H]1O[C@@H](O[C@H]2[C@@H](O)C[C@H](O[C@H]3[C@@H](O)C[C@H](O[C@H]4CC[C@@]5(C)[C@H](CC[C@@H]6[C@@H]5C[C@@H](O)[C@]5(C)[C@@H](C7=CC(=O)OC7)CC[C@]65O)C4)O[C@@H]3C)O[C@@H]2C)C[C@H](O)[C@@H]1O` , thank you. active

Dear all, I need the recorded test outcome for `CCOc1cc(/C=C2/C(=O)N(c3ccccc3)N=C2C)cc(Cl)c1OCC(=O)OC` , thank you. inactive

Dear all, I need the recorded test outcome for `O=[N+]([O-])c1ccc(O)c2ncccc12` , thank you. active

Dear all, I need the recorded test outcome for `O=S(=O)(c1cccc2cnccc12)N1CCCNCC1` , thank you. inactive

Dear all, I need the recorded test outcome for c1ccc(Cn2c(-c3ccc(OCC(C4CCNCC4)n4c(-c5ccccc5)nc5ccccc54)cc3)nc3ccccc32)cc1 (stereo unspecified) , thank you. active

Dear all, I need the recorded test outcome for COc1cc(F)ccc1-c1ncnc(Nc2cccc(CS(C)(=N)=O)c2)n1 (stereo unspecified) , thank you. active

Dear all, I need the recorded test outcome for `C[C@H]1C[C@H]2[C@@H]3CCC4=CC(=O)C=C[C@]4(C)[C@H]3C(=O)C[C@]2(C)[C@@]1(O)C(=O)CO` , thank you. inactive

Dear all, I need the recorded test outcome for `COc1cc2ncn(-c3cc(OCc4ccccc4C(F)(F)F)c(C(N)=O)s3)c2cc1OC` , thank you. active

Dear all, I need the recorded test outcome for CCS(=O)(=O)N1CCC(C(C)n2c(C)c(C(=O)NCc3c(OC)cc(C)[nH]c3=O)c3ccccc32)CC1 (stereo unspecified) , thank you. inactive

Dear all, I need the recorded test outcome for `Cc1ccc(C2=Nc3ccc(Cl)cc3OC2)cc1` , thank you. inactive

Dear all, I need the recorded test outcome for `COc1ccc(OC)c(-c2nnc3ccc(-c4ccc(OC)c(O[C@@H]5CCOC5)c4)nn23)c1` , thank you. active

Dear all, I need the recorded test outcome for `CCC[C@H](NC(=O)/C(C#N)=C/c1cccc(Br)n1)c1ccccc1` , thank you. active

Dear all, I need the recorded test outcome for `O=C(CO)N1CCC(c2[nH]nc(-c3ccc(Cl)cc3)c2-c2ccncn2)CC1` , thank you. inactive

Dear all, I need the recorded test outcome for `CSC[C@H]1CN(Cc2c[nH]c3c(N)ncnc23)C[C@@H]1O` , thank you. inactive

Dear all, I need the recorded test outcome for `CS[C@H]1SC[C@@H]2C(=O)N(C)[C@H](C(C)C)C(=O)OC[C@H](NC(=O)c3cnc4ccccc4n3)C(=O)N[C@H](C)C(=O)N(C)[C@H]1C(=O)N(C)[C@H](C(C)C)C(=O)OC[C@H](NC(=O)c1cnc3ccccc3n1)C(=O)N[C@H](C)C(=O)N2C` , thank you. active

Dear all, I need the recorded test outcome for `CCOc1ccc(Cc2cc([C@@H]3O[C@H](CO)[C@@H](O)[C@H](O)[C@H]3O)ccc2Cl)cc1` , thank you. inactive

###

experiment: BET inhibitor-based combinations targeting novel dependencies in MECOM-rearranged (r) AML: MV-4-11 cell line (AID 2202233); conditions: MV-4-11 AML viability, CellTiter-Glo luminescence, 48 h; series mostly up to 46 µM; also: nearly all actives have a fitted effect of over 45% in size; also: potency is read from the fitted curve at half-maximal effect
Results filed as inconclusive are left out. The source made the active and inactive calls. Calls follow the shape of the dose curve; as a rule, active = well fitted inhibition curve with a large enough effect; inconclusive = small, poorly fitted or top-dose-only effect; inactive = no such curve, though single readings can be large or run the other way.

{"columns": ["smilesInput", "Potency"],
 "data": [
  ["COc1cc(/C=C/C(=O)CC(=O)/C=C/c2ccc(O)c(OC)c2)ccc1O", "3320 nM (active)"],
  ["C[C@H]1C[C@H]2[C@@H]3CCC4=CC(=O)C=C[C@]4(C)[C@H]3C(=O)C[C@]2(C)[C@@]1(O)C(=O)CO", "inactive"],
  ["Cc1ccc(-n2[nH]c(C)c(N=Nc3cccc(-c4cccc(C(=O)O)c4)c3O)c2=O)cc1C", "inactive"],
  ["COc1cccc2c1C(=O)c1c(O)c3c(c(O)c1C2=O)C[C@@](O)(/C(CO)=N/NC(=O)CCCCCN1C(=O)C=CC1=O)C[C@@H]3O[C@H]1C[C@H](N)[C@H](O)[C@H](C)O1", "186 nM (active)"]
]}
